src = PubChem BioAssay (NCI)

system: UO-31 renal; test: NCI tumour cell line growth inhibition, 48 h
value-type: TGI

Study these solved cases before continuing.
COC(=O)c1ccccc1C1CN=NC12Cc1ccc3c(c1C2=O)CCC3 (stereo not drawn) :: > 100 µM
CSc1ncc2c(n1)-c1ccccc1OC2 :: > 100 µM

Here is the next item to consider.
Per the record, COC(=O)c1c(O)ccc2c1c1c(n2Cc2cccc(C)c2)C(=O)c2ccccc2C1 has TGI of > 75 µM

---

test system: NCI-H23 lung; experiment: NCI tumour cell line growth inhibition, 48 h
Documented TGI across a set of compounds

CN(C)S(=O)(=O)c1nc(Cl)c2[nH]cnc2n1 :: > 100 µM
O=S(=O)(c1ccccc1)c1ccc(-c2nc(-c3ccc4c(c3)Sc3ccccc3S4)cs2)cc1 :: 36.1 µM
COc1ccc(/C=C/c2ccnc3ccccc23)cc1OC :: 45.5 µM

Per the record, Fc1ccc(C(OCCN2CCC3CCC(C2)N3C/C=C/c2cccs2)c2ccc(F)cc2)cc1 (centres undefined) has TGI of 20.9 µM

---

Documented TGI across a set of compounds
tested on: SF-295 CNS; assay: NCI tumour cell line growth inhibition, 48 h
Please reply with the bare figure in µM and do not write the unit itself.

For the compound O=C1C(Cl)=C(NCCCN(CCCNC2=C(Cl)C(=O)c3ccccc3C2=O)C2=C(Cl)C(=O)c3ccccc3C2=O)C(=O)c2ccccc21 , the measured TGI on SF-295 CNS was 14.7

For the compound Clc1ccc(-c2nc(NCc3ccco3)c3ccccc3n2)c(Cl)c1 , the measured TGI on SF-295 CNS was 33.5

---

test system: DU-145 prostate; assay: NCI tumour cell line growth inhibition, 48 h
Documented TGI across a set of molecules
Please reply with the bare figure in µM and do not write the unit itself.

CCOCCOCCOCCOCCOCCOCCOCCOCCOCCO (tested in a mixture with another compound) :: 15.2

Per the record, Cc1cc(O)c2c(c1)C(C1c3cccc(O)c3C(=O)c3c(O)cc(C)cc31)c1cccc(O)c1C2=O (stereo not given) has TGI of 18.6

---

system: SF-268 CNS; test: NCI tumour cell line growth inhibition, 48 h
value-type: TGI

Cc1cc(O)c2c(c1)C(C1c3cccc(O)c3C(=O)c3c(O)cc(C)cc31)c1cccc(O)c1C2=O (centres undefined) :: 14 µM
CCCCCCCCCCCCCS(=O)(=O)NCC(N)=O :: > 100 µM
CCC(=O)Nc1nnc(Cc2ccc(OC)c(OC)c2)s1 :: > 100 µM
O=C1C=CC(=O)c2c1nc(CBr)[nH]c2=O :: > 100 µM
O=C(NC1C/C(=N/O)c2c(Br)sc(Br)c21)C(F)(F)F (centres undefined) :: > 100 µM

Per the record, CSc1ncc2c(n1)-c1ccccc1OC2 has TGI of > 100 µM

Per the record, Cc1nn2c(c1C#N)NNc1c-2sc(=N)nnc1=O has TGI of > 100 µM

Per the record, NC(=O)c1ncn(C2OC(CO)C(O)C2O)c1O (centres undefined) has TGI of > 100 µM

Per the record, CCN(CC)c1c(C)nnn1C1OC(COC(C)=O)C(OC(C)=O)C(OC(C)=O)C1OC(C)=O (centres undefined) has TGI of > 100 µM

Per the record, CCCCCCCCN=C(NCCCCCCCC)SCc1cccc2ccccc12 has TGI of 3.37 µM

Per the record, COc1ccc(NC(=O)C(=O)Cc2ccc([N+](=O)[O-])c([N+](=O)[O-])c2CC(=O)C(=O)Nc2ccc(OC)cc2OC)c(OC)c1 has TGI of > 100 µM

Per the record, O=c1[nH]c(=O)n(C2CC(O)C(CO)O2)cc1Br (centres undefined) has TGI of > 100 µM

Per the record, O=S(=O)(c1ccccc1)c1ccc(-c2nc(-c3ccc4c(c3)Sc3ccccc3S4)cs2)cc1 has TGI of > 100 µM

Per the record, Cc1cc(N(CCNc2ccnc3cc(Cl)ccc23)Cc2ccc3c(c2)OCO3)nc(N2CCCC2)n1 has TGI of 7.16 µM

Per the record, CC#COS(=O)(=O)c1ccc(C)cc1 has TGI of > 100 µM

Per the record, COc1ccc(-c2nnc3n(C)c4ccccc4n3c2=O)cc1 has TGI of > 100 µM

Per the record, CN1CCN(c2ccc(NC3=CC(=O)c4ncncc4C3=O)cc2)CC1 has TGI of 5.73 µM

Per the record, CC(=O)Nc1ccc(/C=c2\sc3nnc(-c4cccnc4)n3c2=O)cc1 has TGI of 60 µM

Per the record, O=S(=O)(/N=C(\NO)Nc1ccc(Cl)cc1)c1cc2ccccc2s1 has TGI of 29.2 µM
